# TEST_NAME: Solubility
# Type: physicochemical
# ASSAY_CONDITIONS: pH 4, aqueous buffer; read-out: Solubility (μg/ml at pH 4)

>  <SMILES>
CNCc1cccc(C(=O)Oc2ccc(S(=O)(=O)CCN3CC[C@H](Cc4ccccc4)[C@H](O)C3)cc2)c1

>  <solubility>
86600 µg/mL

$$$$
>  <SMILES>
CNCc1ccc(C(=O)Oc2ccc(S(=O)(=O)CCN3CC[C@H](Cc4ccccc4)[C@H](O)C3)cc2)cc1

>  <solubility>
26100 µg/mL

$$$$
>  <SMILES>
O=C(Oc1ccc(S(=O)(=O)CCN2CC[C@H](Cc3ccccc3)[C@H](O)C2)cc1)c1cccc(CN2CCOCC2)c1

>  <solubility>
8500 µg/mL

$$$$
>  <SMILES>
O=P(O)(O)Oc1ccc(S(=O)(=O)CCN2CC[C@H](Cc3ccccc3)[C@H](O)C2)cc1

>  <solubility>
594 µg/mL

$$$$
>  <SMILES>
O=C(O)CCC(=O)Oc1ccc(S(=O)(=O)CCN2CC[C@H](Cc3ccccc3)[C@H](O)C2)cc1

>  <solubility>
1800 µg/mL

$$$$
>  <SMILES>
NCc1ccc(C(=O)Oc2ccc(S(=O)(=O)CCN3CC[C@H](Cc4ccccc4)[C@H](O)C3)cc2)cc1

>  <solubility>
6710 µg/mL

$$$$

----------
A collection of molecules and their measured solubility
# TEST_NAME: Solubility
# Assay type: physicochemical
# ASSAY_CONDITIONS: pH 7, aqueous buffer; read-out: Solubility (μg/ml at pH 7)

>  <MOLECULE>
O=C(O)CCC(=O)Oc1ccc(S(=O)(=O)CCN2CC[C@H](Cc3ccccc3)[C@H](O)C2)cc1 [Example 1]

>  <UNITS_TEXT>
µg/mL

>  <REL>
=

>  <solubility>
7690

$$$$
>  <MOLECULE>
O=S(=O)(CCN1CC[C@H](Cc2ccccc2)[C@H](O)C1)c1ccc(O)cc1 [Compound of formula II, reference compound]

>  <UNITS_TEXT>
µg/mL

>  <REL>
=

>  <solubility>
47

$$$$
>  <MOLECULE>
O=C(Oc1ccc(S(=O)(=O)CCN2CC[C@H](Cc3ccccc3)[C@H](O)C2)cc1)c1cccc(CN2CCOCC2)c1 [Example 6]

>  <UNITS_TEXT>
µg/mL

>  <REL>
=

>  <solubility>
89

$$$$
>  <MOLECULE>
O=P(O)(O)Oc1ccc(S(=O)(=O)CCN2CC[C@H](Cc3ccccc3)[C@H](O)C2)cc1 [Example 2]

>  <UNITS_TEXT>
µg/mL

>  <REL>
>

>  <solubility>
37600

$$$$
